Origin of the recorded values: patent US10688032B2

tested on: glucose-6-phosphate dehydrogenase (G6PDH); assay: G6PDH activity on human fibroblasts (enzymatic method of Okada); assay type: cell-based; details: conc. 0.001 % w/v, compared to blank sample = 100
Examples of molecules with documented G6PDH after 6 d follow.
reported-metric: G6PDH after 6 d (%-rel.)

INSERT INTO results (molecule, experimental_system, value_reported) VALUES
  ('CCCCC(CC)COC(=O)C(C#N)=C(c1ccccc1)c1ccccc1 (stereo not shown) [Octocrinyl, reference compound]', 'glucose-6-phosphate dehydrogenase (G6PDH)', 85),
  ('C[N+](C)(C)C[C@H](O)CC(=O)O.[Cl-] [Carnitine*HCl]', 'glucose-6-phosphate dehydrogenase (G6PDH)', 109),
  ('NCCC(=O)N[C@@H](Cc1cnc[nH]1)C(=O)O', 'glucose-6-phosphate dehydrogenase (G6PDH)', 109),
  ('CCCCCCOC(=O)c1ccccc1C(=O)c1ccc(N(CC)CC)cc1O [Uvinul A, reference compound]', 'glucose-6-phosphate dehydrogenase (G6PDH)', 81);

* * *

system: glucose-6-phosphate dehydrogenase (G6PDH); test: G6PDH activity on human fibroblasts (enzymatic method of Okada); format: cell-based; details: conc. 0.001 % w/v, compared to blank sample = 100
G6PDH after 3 d listing for selected compounds.
reported-metric: G6PDH after 3 d (%-rel.)

INSERT INTO results (compound, reported_metric, value_reported) VALUES
  ('C[N+](C)(C)C[C@H](O)CC(=O)O.[Cl-] [Carnitine*HCl]', 'G6PDH after 3 d', 104),
  ('CCCCC(CC)COC(=O)C(C#N)=C(c1ccccc1)c1ccccc1 (stereo not shown) [Octocrinyl, reference compound]', 'G6PDH after 3 d', 89),
  ('CCCCCCOC(=O)c1ccccc1C(=O)c1ccc(N(CC)CC)cc1O [Uvinul A, reference compound]', 'G6PDH after 3 d', 88),
  ('NCCC(=O)N[C@@H](Cc1cnc[nH]1)C(=O)O', 'G6PDH after 3 d', 105);
